Values of IC50 reported for hERG channel (Homo sapiens, UniProt Q12809, DEL141-380/DEL871-1005) appear below.

- Compound: "O=c1n(CCCN2CCN(c3cccc(Cl)c3)CC2)nc2ccccn12 [Trazadone]"
  IC50, µM: 9.25
- Compound: "N=C(N)SCCc1ccc(OCc2ccc([N+](=O)[O-])cc2)cc1 [KB-R7943]"
  IC50, µM: 1.78

---

# Tested On: hERG channel (Homo sapiens, UniProt Q12809, DEL141-380/DEL871-1005)
# Sequence (Q12809 with tags, fused parts or gaps DEL141-380/DEL871-1005): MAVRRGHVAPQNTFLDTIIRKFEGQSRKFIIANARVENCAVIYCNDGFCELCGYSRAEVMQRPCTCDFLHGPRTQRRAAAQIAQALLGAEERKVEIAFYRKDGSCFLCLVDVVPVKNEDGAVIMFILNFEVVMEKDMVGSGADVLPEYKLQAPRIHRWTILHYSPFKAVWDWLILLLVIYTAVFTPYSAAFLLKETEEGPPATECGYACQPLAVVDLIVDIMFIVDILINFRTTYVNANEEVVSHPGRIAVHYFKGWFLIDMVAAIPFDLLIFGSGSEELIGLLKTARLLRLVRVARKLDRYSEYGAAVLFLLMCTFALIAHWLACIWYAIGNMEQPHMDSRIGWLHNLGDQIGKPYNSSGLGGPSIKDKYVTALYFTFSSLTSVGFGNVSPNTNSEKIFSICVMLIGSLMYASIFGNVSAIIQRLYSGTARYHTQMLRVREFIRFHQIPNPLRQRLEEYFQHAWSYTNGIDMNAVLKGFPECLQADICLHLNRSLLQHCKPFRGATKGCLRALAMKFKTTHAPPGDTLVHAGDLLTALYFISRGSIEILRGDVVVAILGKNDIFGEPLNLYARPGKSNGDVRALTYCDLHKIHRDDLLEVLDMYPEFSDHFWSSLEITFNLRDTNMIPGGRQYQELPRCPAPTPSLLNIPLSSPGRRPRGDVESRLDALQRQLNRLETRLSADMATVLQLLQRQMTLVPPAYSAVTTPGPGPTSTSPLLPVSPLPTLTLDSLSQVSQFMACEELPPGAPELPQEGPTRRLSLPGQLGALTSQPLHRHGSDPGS
# Protocol Notes: biochemical
pIC50: −log10 of the molar value.

- Molecule: "CCN(CC)CCCN(c1ccccc1)C1Cc2ccccc2C1 [Aprindine]"
  Tested On: "hERG channel (Homo sapiens, UniProt Q12809, DEL141-380/DEL871-1005)"
  pIC50: 5.73
- Molecule: "CC(C(O)c1ccc(O)cc1)N1CCC(Cc2ccccc2)CC1 (stereo not drawn) [Ifenprodil]"
  Tested On: "hERG channel (Homo sapiens, UniProt Q12809, DEL141-380/DEL871-1005)"
  pIC50: 5.80
- Molecule: "CN1CCN(CCCCN2C(=O)CN(/N=C/c3ccc(-c4ccc(Cl)cc4)o3)C2=O)CC1 [Azimilide]"
  Tested On: "hERG channel (Homo sapiens, UniProt Q12809, DEL141-380/DEL871-1005)"
  pIC50: 5.37

---

# Tested On: hERG channel (Homo sapiens, UniProt Q12809, DEL141-380/DEL871-1005)
# Protocol Notes: in vitro
# Study Conditions: pH 7.4

- Compound: "COC[C@H]1OC(=O)c2coc3c2[C@@]1(C)C1=C(C3=O)[C@@H]2CCC(=O)[C@@]2(C)C[C@H]1OC(C)=O"
  Tested On: "hERG channel (Homo sapiens, UniProt Q12809, DEL141-380/DEL871-1005)"
  inhibition at 100 µM (%): 1.7
- Compound: "CC1=C(CC(=O)O)c2cc(F)ccc2/C1=C\\c1ccc([S+](C)[O-])cc1 (stereo not shown)"
  Tested On: "hERG channel (Homo sapiens, UniProt Q12809, DEL141-380/DEL871-1005)"
  inhibition at 100 µM (%): 1.1
- Compound: "CC(=O)Nc1ccc(O)cc1"
  Tested On: "hERG channel (Homo sapiens, UniProt Q12809, DEL141-380/DEL871-1005)"
  inhibition at 100 µM (%): 11.6
- Compound: "CC(=O)Nc1nnc(S(N)(=O)=O)s1 [Acetazolamide]"
  Tested On: "hERG channel (Homo sapiens, UniProt Q12809, DEL141-380/DEL871-1005)"
  inhibition at 100 µM (%): 4.4
- Compound: "CC(C)Cc1ccc(C(C)C(=O)O)cc1 (stereo not shown)"
  Tested On: "hERG channel (Homo sapiens, UniProt Q12809, DEL141-380/DEL871-1005)"
  inhibition at 100 µM (%): 13.1
- Compound: "C[N+](C)(C)CCOC(N)=O"
  Tested On: "hERG channel (Homo sapiens, UniProt Q12809, DEL141-380/DEL871-1005)"
  inhibition at 100 µM (%): 2.2
- Compound: "Clc1cccc(Cl)c1N=C1NCCN1"
  Tested On: "hERG channel (Homo sapiens, UniProt Q12809, DEL141-380/DEL871-1005)"
  inhibition at 100 µM (%): 15.2
- Compound: "CCCCOc1ccc(CC(=O)NO)cc1"
  Tested On: "hERG channel (Homo sapiens, UniProt Q12809, DEL141-380/DEL871-1005)"
  inhibition at 100 µM (%): 1.7
- Compound: "COc1cc(Cc2cnc(N)nc2N)cc(OC)c1OC"
  Tested On: "hERG channel (Homo sapiens, UniProt Q12809, DEL141-380/DEL871-1005)"
  inhibition at 100 µM (%): 20.6
- Compound: "COc1ccccc1OCC(O)CO (stereo not shown)"
  Tested On: "hERG channel (Homo sapiens, UniProt Q12809, DEL141-380/DEL871-1005)"
  inhibition at 100 µM (%): -3.5
- Compound: "CC1Cc2ccccc2N1NC(=O)c1ccc(Cl)c(S(N)(=O)=O)c1 (stereo not shown) [Indapamide]"
  Tested On: "hERG channel (Homo sapiens, UniProt Q12809, DEL141-380/DEL871-1005)"
  inhibition at 100 µM (%): 4.8
- Compound: "CC1(C)O[C@H]1COc1c2ccoc2cc2oc(=O)ccc12"
  Tested On: "hERG channel (Homo sapiens, UniProt Q12809, DEL141-380/DEL871-1005)"
  inhibition at 100 µM (%): 4.5
- Compound: "CN/C(=N/CCSCc1nc[nH]c1C)NC#N"
  Tested On: "hERG channel (Homo sapiens, UniProt Q12809, DEL141-380/DEL871-1005)"
  inhibition at 100 µM (%): 19.9
- Compound: "CC(=O)CC(c1ccccc1)c1c(O)c2ccccc2oc1=O (stereo not shown)"
  Tested On: "hERG channel (Homo sapiens, UniProt Q12809, DEL141-380/DEL871-1005)"
  inhibition at 100 µM (%): 9.1
- Compound: "C=C(CC)C(=O)c1ccc(OCC(=O)O)c(Cl)c1Cl"
  Tested On: "hERG channel (Homo sapiens, UniProt Q12809, DEL141-380/DEL871-1005)"
  inhibition at 100 µM (%): 8.1
- Compound: "CN(C)c1ccc(O)c2c1C[C@H]1C[C@H]3[C@H](N(C)C)C(O)=C(C(N)=O)C(=O)[C@@]3(O)C(O)=C1C2=O"
  Tested On: "hERG channel (Homo sapiens, UniProt Q12809, DEL141-380/DEL871-1005)"
  inhibition at 100 µM (%): -2.5
